Quick list: apparent KD of K4 kissing-loop reporter per entry.
system: K4 kissing-loop RNA reporter; assay: apparent KD of K4 kissing-loop reporter; higher = weaker reporter binding; settings: Eterna round: R107; input ligand: FMN 200 uM
Please respond with the number in nM and leave the unit unwritten.

Q: Name the recorded apparent KD of K4 kissing-loop reporter for UGAUUUAACUGAAGGAGCGGCAAUUGAUAAGUAAAUAUAGUGAUGUUAUAUAAGAUAGAGAGCCAGGUAGGUCGCAGAGGUAUGA [ExArgB.L] .
Result: 193

Q: Name the recorded apparent KD of K4 kissing-loop reporter for AAGUUGAACUGAAGGAGCGAGAAAUAGAAUGUAAGAAUAUAUGCUAGUGAUGUUAGAAAUUCUCAGGUAGGUCGCAGUAAGAAUU [V1] .
Result: 368

Q: Name the recorded apparent KD of K4 kissing-loop reporter for UUGCGUCUCUGAGGAUAUCAGAACAGAGUGAUGUUCUGUCAACGCCCAGUGAUGUUGGAUGCGAUCUGAGAAGGCAGUGGGCGCG [Same State FMN B GF 10] .
Result: 202

Q: Name the recorded apparent KD of K4 kissing-loop reporter for GGCACUUUUGGUAGAAAACAUCUACCUCUAUAGGAUAUGCCGAAAGGCAGAAGGAUAGACCUACAGAGUGAUGUUCUGCGUGCCU .
Result: 874

Q: Name the recorded apparent KD of K4 kissing-loop reporter for GGAUAGGACUGAGGAUAUGGGCUAGGCAAGAAUAACUUGUCUAGCAAAUCCAUGAGGAGUGAUGUUCCAGAAGGCAGUCCUAUCG [FmnBX 1 U10+A76] .
Result: 732

Q: Name the recorded apparent KD of K4 kissing-loop reporter for AGACUACCACACUGUCAAUAGACAGUGAGCUAGGAUAUGCUGAUAAGCAGAAGGAGUGAUGUUCCUCGGUAGUCAAUAAAAUAAU [FmnAX 13 G29+C67] .
Result: 373

Q: Name the recorded apparent KD of K4 kissing-loop reporter for GGAUCCACCAGUGAUGUUGGAGAAAACUCUAAGGAUAUGACGAAAGUCAGAAGGUGGUAGACUGGACAAAGUCCGGUAGGAUCCA [FmnA10 U30+A78] .
Result: 682

Q: Name the recorded apparent KD of K4 kissing-loop reporter for GUACGCUCUCGAGUGAUGUUCGGUAAUAGUUAGGAUAUCGCUUUUGCGAGAAGGAACUGAAUGAGGAAACUCGUUCUGAGUGUAC [FMN A 18] .
Result: 618

Q: Name the recorded apparent KD of K4 kissing-loop reporter for UAUUAAUUGUCAGGAUAUCGUAAUCGAGUGAUGUUCGAAUAUCGACGAUAGUCGAUAUUAUUUAUACGAGAAGGGACAUUAUUUA [JR_SSFMNB_Sub004] .
Result: 366

Q: Name the recorded apparent KD of K4 kissing-loop reporter for AUUUAAUGUAUAGAUUAUAUACAUUAUUCAGAGGAUAUGCAUUGAAGCAGAAGGCUGGGUGUAGUGAUGUUGCAGUUUUAAUUUA [whbob_SS_FMNA__2th173] .
Result: 150

Q: Name the recorded apparent KD of K4 kissing-loop reporter for AAAAUAAACCAGUGAUGUUGGUAUCCAGAUACCAGCGACGAAAGUCGCCCUUGGCAGCUGUGGACGUACAAAAUAAGUACGUCCU .
Result: 930

Q: Name the recorded apparent KD of K4 kissing-loop reporter for CAGCAUCAGGUUCAAACUGCAUGUACUGAUACCAGUCUUAAGAUCGACCCUUGGCAGCAGCUCCCGAGUGAUGUUCGUAGCGAGC [theeternabot_exclusion_KL_Theo_A_41] .
Result: 362

====

tested on: MS2 coat protein; assay: apparent KD of MS2 coat protein; designed switch direction (-1 OFF switch, 1 ON switch): -1; higher = weaker reporter binding; conditions: input ligand: FMN 200 uM
Quick list: apparent KD of MS2 coat protein per entry.
Please respond with the number in nM and leave the unit unwritten.

ordered_residues	measured_parameter	scale_unit	measured_value
GCAAGAUUCUGAGGAUAUGCGCUACAUCCCACAGCAGAAGGCGGAAAUUGACUGACAUGAGGAUCACCCAUGUGAUCCGCUUUC [Eternabot solution 33] (Eterna round: R96, puzzle: Exclusion NG 1)	apparent KD of MS2 coat protein	nM	32.7

Q: Name the recorded apparent KD of MS2 coat protein for AAAUAGCAUGAGGAUAUUGAACUGUAUACAGUACGAGAAGGCAUGACAUGAGGAUCACCCAUGUUUUGUUGGGA [EX6 #4] (Eterna round: R97, puzzle: Exclusion 6) .
Result: 119

Q: Name the recorded apparent KD of MS2 coat protein for AUUUAGCAAGUUAGAUCCUACAUGAGGAUCACCCAUGUUGUUCGUCUCAUUUGAAGACAACACAAAAGUGUUGUCUU [Omei Mir OFFv1 B4] (Eterna round: R97, puzzle: Sensor, turn-off variant 1) .
Result: 112

Q: Name the recorded apparent KD of MS2 coat protein for UUUUUACAUGAGGAUCACCCAUGUGAGGAUAUGGAGCGCGACCGCGCGGUCGCGUACACCAGAAGGCGCAGGAU [1st #76] (Eterna round: R97, puzzle: Exclusion 1) .
Result: 89.7

Q: Name the recorded apparent KD of MS2 coat protein for UUGGCAGGUUUUUUGCUCGACAUGAGGAUCACCCAUGUUGCGUGGGUUGUGUGUGUGCGGUGUAUAUAUAUGGUCCU [-24.8, -48.1 kcal, A 14%] (Eterna round: R97, puzzle: Sensor, turn-off variant 1) .
Result: 480

Q: Name the recorded apparent KD of MS2 coat protein for UUAAAUCAUGUAGGAUAUGCGUGGCGAAGCUAUGCAGAAGGACAUGAGGAUCACCCAUGUUCUAGCGUCUGCGAACAGAUGCAA [Mat - Exclusion NG 1 - Mod of JL - D1] (Eterna round: R96, puzzle: Exclusion NG 1) .
Result: 120

====

tested on: MS2 coat protein; experiment: apparent KD of MS2 coat protein; designed switch direction (-1 OFF switch, 1 ON switch): -1; higher = weaker reporter binding; conditions: input ligand: FMN 200 uM
measured_parameter: apparent KD of MS2 coat protein

ordered_residues	apparent KD of MS2 coat protein
CACCUGAAUACAGGAUAUCCUACAUGAGGAUCACCCAUGUAAUAAAUGAGAAUUUCGAAUGUAAUGGAGAAGGGUAGAUAAGGC [Ostracism 88 - Jieux - Exclusion NG 2] (Eterna round: R96, puzzle: Exclusion NG 2)	125 nM
UUGUAACAUGAGGAUCACCCAUGUGAGGAUAUGGUUAAGUAAUGUAAUGUAAAGUAAUCCAGAAGGCACAAGUU [1st #23] (Eterna round: R97, puzzle: Exclusion 1)	70.3 nM

Q: Name the recorded apparent KD of MS2 coat protein for UAUAUAUAGUAAGGAUAUGUAUUAAUUUCAUAAACAGAAGGUACUGACAUGAGGAUCACCCAUGUUUUAGUGUGGGCAUGUAGA [JMF's solution 85] (Eterna round: R96, puzzle: Exclusion NG 1) .
Result: 88.2 nM

====

Quick list: apparent KD of K4 kissing-loop reporter per entry.
system: K4 kissing-loop RNA reporter; assay: apparent KD of K4 kissing-loop reporter; higher = weaker reporter binding; conditions: Eterna round: R107; input ligand: theophylline 20 uM;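 note: bound reporter read as fluorescence of individual clusters on recovered sequencing chips by microscopy, with normalized cluster intensities fitted with a binding model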
Number first, unit second.

// known answers, use as guide
ordered_residues	apparent KD of K4 kissing-loop reporter
AGCCAGCGUACAUCACUCUGGCUGCUGGAUACCAGCUCGGAAACGAGCCCUUGGCAGCCAGAACUUGCAGUGAUGUUGCAAGUAA [Design12]	458 nM
UUCGGCCUGACGGCCGCCACUUUGGGUAGUGAUGUUACCAACAUUCACCAGAUACAGGUUACUUCAAGGACCGGGUCAGACGGUG [theeternabot_exclusion_KL_Trp_B_45]	107 nM
AUAUUACUAUACGAUACCAGCCCUAACACUAGUGACGCGGUAAUAGUGAUGUUGUAACCCGGCCCUUGGCAGCGUAAUCAUGGAA [theeternabot_sameState_KL_Theo_B_7]	524 nM
AUUAUAAAGGCGGCCGCCACUAGUGAUGUUAGUGACUAUAGUAUUAUCUAUAGAAUAAAAUAAAAUAGGACCGGGCCAAAAUAUU [AstrosExTryB#2]	493 nM
GGAUGCAUUUUGGAUACCAGUCUAGUGAUGUUAGACUGAUAAUAACGGGCAGCGUUGGCAGACCCUUGGCAGCCAAAAUACUUAA [theeternabot_exclusion_KL_Theo_B_33]	63.9 nM
CGCCGCAAGGCGGGCCGGCCCACUCCGGAAGGAGCGCCCGCAAGGGCAGGUAGGUCGCCGGAGUGAUGUUCCGGUGGCCGGCCCG [#2 Exclusion - Arginine A Attempt #3 (Inspired by Omei)]	592 nM

Q: State its apparent KD of K4 kissing-loop reporter on K4 kissing-loop RNA reporter: GCGCGGCACAGUGAUGUUGUGCCUCGGAGACGAGGACCGGUACGGCCGCCACUCGUCCGCGCAGCUGAGGCAAAAGCCUCGGCAA [Omei KL Tryp A SS B v4]
Result: 447 nM

Q: State its apparent KD of K4 kissing-loop reporter on K4 kissing-loop RNA reporter: AAAUAGAUCAGUCACCCAGUGAUGUUGGAAGGAGCGUGCGAAAGCACAGGUAGGUCGCCAUAAUAAAAGUGGCUGAUCAAAAUAA
Result: 534 nM

Q: State its apparent KD of K4 kissing-loop reporter on K4 kissing-loop RNA reporter: AGACUACCACACUGUCAAUAGACAGUGAAUUAGGAUAUGCUGAUAAGCAGAAGGAGUGAUGUUCCCAGGUAGUCAAUAAAAUAAU [FmnAX 13 U30+C66]
Result: 202 nM
